Origin of measurements: ChEMBL document CHEMBL3526111

molecular target: CYP2D6 (Homo sapiens, UniProt P10635); test: Time dependent inhibition of CYP2D6 activity in human hepatocytes after 30 mins by liquid chromatography/tandem mass spectroscopy; type: ADME, cell-based, Hepatocyte
Sequence (P10635 whole entry): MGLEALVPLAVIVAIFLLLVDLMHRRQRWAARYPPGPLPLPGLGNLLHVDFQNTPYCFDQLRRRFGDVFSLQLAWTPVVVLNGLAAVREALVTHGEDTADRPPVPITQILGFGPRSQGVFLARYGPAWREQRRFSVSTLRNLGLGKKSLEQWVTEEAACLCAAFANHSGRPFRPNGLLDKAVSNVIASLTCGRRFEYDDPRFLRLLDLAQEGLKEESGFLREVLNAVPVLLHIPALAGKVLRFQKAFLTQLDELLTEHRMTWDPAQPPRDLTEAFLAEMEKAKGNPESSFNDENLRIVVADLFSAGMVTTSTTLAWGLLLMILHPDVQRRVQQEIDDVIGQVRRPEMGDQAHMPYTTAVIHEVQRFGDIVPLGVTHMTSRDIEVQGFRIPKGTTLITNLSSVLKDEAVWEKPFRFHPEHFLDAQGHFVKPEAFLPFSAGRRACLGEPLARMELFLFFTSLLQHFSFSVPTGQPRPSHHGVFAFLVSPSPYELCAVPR
Observable: inhibition at 0.5 h

Identify the measured inhibition at 0.5 h of CC(C)c1cc2c(c(O)c1O)[C@@]1(C(=O)O)CCCC(C)(C)[C@@H]1CC2 for CYP2D6 (Homo sapiens, UniProt P10635).
< 11%

###

molecular target: CYP2B6 (Homo sapiens, UniProt P20813); assay: Time dependent inhibition of CYP2B6 activity in human hepatocytes after 30 mins by liquid chromatography/tandem mass spectroscopy; assay type: ADME, cell-based, Hepatocyte
Sequence (P20813 whole entry): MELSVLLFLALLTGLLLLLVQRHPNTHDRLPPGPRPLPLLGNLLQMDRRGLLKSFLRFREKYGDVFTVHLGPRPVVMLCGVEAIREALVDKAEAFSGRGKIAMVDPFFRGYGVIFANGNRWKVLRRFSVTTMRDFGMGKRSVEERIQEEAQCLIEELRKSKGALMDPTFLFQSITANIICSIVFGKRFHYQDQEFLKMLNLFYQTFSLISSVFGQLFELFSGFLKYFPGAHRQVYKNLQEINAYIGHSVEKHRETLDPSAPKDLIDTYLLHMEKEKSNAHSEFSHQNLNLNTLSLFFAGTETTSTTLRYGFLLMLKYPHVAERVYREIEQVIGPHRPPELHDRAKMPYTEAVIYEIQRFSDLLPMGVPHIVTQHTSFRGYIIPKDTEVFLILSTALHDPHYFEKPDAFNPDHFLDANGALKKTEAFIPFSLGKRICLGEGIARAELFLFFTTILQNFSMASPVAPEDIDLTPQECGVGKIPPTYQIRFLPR
Observable: inhibition at 0.5 h

Report inhibition at 0.5 h for CC(C)c1cc2c(c(O)c1O)[C@@]1(C(=O)O)CCCC(C)(C)[C@@H]1CC2 [CARNOSIC ACID] tested on CYP2B6 (Homo sapiens, UniProt P20813).
< 11%

###

test system: Hepatocyte; experiment: Cytotoxicity against human hepatocytes assessed as reduction in cell viability after 4 hrs by ATP detection based assay
Observable: pEC50
Please report pEC50 as the negative decimal logarithm of the molar concentration, giving only the number.

Which pEC50 is reported for this molecule? CC/C(=C(\c1ccccc1)c1ccc(OCCN(C)C)cc1)c1ccccc1
4.15

May I ask what pEC50 has been recorded for CC(C)c1cc2c(c(O)c1O)[C@@]1(C(=O)O)CCCC(C)(C)[C@@H]1CC2 ?
4.02

###

test system: CYP2B6; test: Induction of CYP2B6 mRNA expression in human hepatocytes at 10 uM after 48 hrs relative to untreated control; assay type: ADME, cell-based, Hepatocyte; details: read-out: FC
Observable: fold induction at 48 h, 10 µM
Quick one: just the number, no unit, thanks!

What does the record list as fold induction at 48 h, 10 µM for CC(C)c1cc2c(c(O)c1O)[C@@]1(C(=O)O)CCCC(C)(C)[C@@H]1CC2 ?
4.5

###

target: Cytochrome P450 2C9 (Homo sapiens); experiment: Inhibition of CYP2C9 activity in human hepatocytes after 30 mins by liquid chromatography/tandem mass spectroscopy
Sequence (P11712 whole entry): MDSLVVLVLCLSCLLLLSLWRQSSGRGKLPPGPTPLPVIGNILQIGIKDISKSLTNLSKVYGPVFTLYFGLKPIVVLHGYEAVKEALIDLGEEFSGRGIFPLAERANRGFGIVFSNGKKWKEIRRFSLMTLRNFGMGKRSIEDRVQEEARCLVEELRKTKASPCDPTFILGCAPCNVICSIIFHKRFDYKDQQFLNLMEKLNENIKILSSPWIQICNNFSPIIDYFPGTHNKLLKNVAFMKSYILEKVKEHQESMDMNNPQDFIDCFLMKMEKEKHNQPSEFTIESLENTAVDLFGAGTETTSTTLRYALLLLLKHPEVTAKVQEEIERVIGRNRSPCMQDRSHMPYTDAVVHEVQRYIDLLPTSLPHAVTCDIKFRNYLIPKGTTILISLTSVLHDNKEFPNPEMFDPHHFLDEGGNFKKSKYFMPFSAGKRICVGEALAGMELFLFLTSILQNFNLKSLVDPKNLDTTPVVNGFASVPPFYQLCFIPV
Observable: pKi
Conceptually, pKi converts a concentration in mol/L into minus its log10.

What measured pKi is associated with CC(C)c1cc2c(c(O)c1O)[C@@]1(C(=O)O)CCCC(C)(C)[C@@H]1CC2 [CARNOSIC ACID] on Cytochrome P450 2C9 (Homo sapiens)?
5.04

###

molecular target: CYP2E1 (Homo sapiens, UniProt P05181); experiment: Time dependent inhibition of CYP2E1 activity in human hepatocytes after 30 mins by liquid chromatography/tandem mass spectroscopy; type: ADME, cell-based, Hepatocyte
Sequence (P05181 whole entry): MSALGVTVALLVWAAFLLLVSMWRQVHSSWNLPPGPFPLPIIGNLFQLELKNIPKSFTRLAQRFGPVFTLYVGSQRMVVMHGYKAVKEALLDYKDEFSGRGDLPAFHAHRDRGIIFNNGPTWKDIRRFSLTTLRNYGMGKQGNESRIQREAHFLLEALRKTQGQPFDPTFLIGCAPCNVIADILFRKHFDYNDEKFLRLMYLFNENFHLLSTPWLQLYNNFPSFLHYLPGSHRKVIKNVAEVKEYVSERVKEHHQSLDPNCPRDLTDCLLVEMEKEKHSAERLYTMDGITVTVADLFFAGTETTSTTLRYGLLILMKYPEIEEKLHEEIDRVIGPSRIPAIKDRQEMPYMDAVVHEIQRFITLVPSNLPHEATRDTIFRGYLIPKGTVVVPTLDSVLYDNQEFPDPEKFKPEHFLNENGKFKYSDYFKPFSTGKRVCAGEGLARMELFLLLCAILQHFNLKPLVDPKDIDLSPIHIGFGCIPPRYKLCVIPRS
Observable: inhibition at 0.5 h

Value lookup for inhibition at 0.5 h; key = CC(C)c1cc2c(c(O)c1O)[C@@]1(C(=O)O)CCCC(C)(C)[C@@H]1CC2
< 11%

###

target: CYP2C19 (Homo sapiens, UniProt P33261); assay: Time dependent inhibition of CYP2C19 activity in human hepatocytes after 30 mins by liquid chromatography/tandem mass spectroscopy; format: ADME, cell-based, Hepatocyte
Sequence (P33261 whole entry): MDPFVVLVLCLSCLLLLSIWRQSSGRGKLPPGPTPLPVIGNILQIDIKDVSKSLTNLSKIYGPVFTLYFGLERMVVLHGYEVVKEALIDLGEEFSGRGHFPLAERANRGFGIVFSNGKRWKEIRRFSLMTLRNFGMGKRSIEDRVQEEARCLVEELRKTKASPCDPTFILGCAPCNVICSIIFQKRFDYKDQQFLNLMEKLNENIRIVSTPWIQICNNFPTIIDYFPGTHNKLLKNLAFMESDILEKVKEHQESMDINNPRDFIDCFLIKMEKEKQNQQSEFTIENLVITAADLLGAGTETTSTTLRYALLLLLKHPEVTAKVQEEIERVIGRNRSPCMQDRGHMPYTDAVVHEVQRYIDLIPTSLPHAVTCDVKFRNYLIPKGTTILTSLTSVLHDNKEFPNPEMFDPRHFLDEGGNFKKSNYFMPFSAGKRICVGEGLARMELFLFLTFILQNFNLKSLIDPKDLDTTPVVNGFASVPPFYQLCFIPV
Observable: inhibition at 0.5 h

What inhibition at 0.5 h appears in the records for this compound with CYP2C19 (Homo sapiens, UniProt P33261)? CC(C)c1cc2c(c(O)c1O)[C@@]1(C(=O)O)CCCC(C)(C)[C@@H]1CC2 [CARNOSIC ACID]
< 11%
